Tested on: A549 NSCLC
Experiment: NCI tumour cell line growth inhibition, 48 h; in the data active = GI50 below about 0.43 µM; inactive = the rest
Pick one: class 1 (active), class 0 (inactive)

compound | assigned.label
COc1cc(F)c(F)c(F)c1C(=O)c1cnc(NC2CCN(S(C)(=O)=O)CC2)nc1N | class 0

Query string: # outcome recorded in this test, key = `Nc1nc(-c2ccccn2)c(-c2ccc3ncccc3n2)s1`
Result string: class 0

Query string: Recorded call for `O=C(c1ccco1)c1c(C(F)(F)F)n([O-])c2cc(Cl)c(Cl)cc2[n+]1=O` ?
Result string: class 0

Query string: What is the recorded call for this compound in the test? `C=C(CN1CCc2ccccc2C1)c1ccc(C(=O)Nc2cccc(N)c2)cc1`
Result string: class 0

FYI, the data here is from PubChem BioAssay (NCI).
